System: KM12 colon
test method notes: NCI-60 one-dose screen, 48 h
experimental setup: 10 µM unless noted
This is part of a sample that, as a whole, favours compounds with a hit. Of some 83,000 tested, about 20% had one in any assay. Active and inactive are the calls of the source. Rule for the calls: active = growth percent below 10; inactive = the rest.
Valid outcomes are listed here; reply with one: TRUE (active), FALSE (inactive)

Request: Call for entry Clc1cccc(-c2cc(-c3ccc4c(c3)OCCO4)[nH]n2)c1 :
Result: FALSE

Request: Hi team, can someone confirm the assay call for Cc1cccc(/C=N/Nc2cc(C)c3cccc(C)c3n2)n1 ?
Result: FALSE

Request: Each compound tested received a call. Report the one for Cc1cc(C2=NNC(=O)Cc3cc4c(cc32)OCCO4)cc(C)c1N .
Result: FALSE

Request: Can you look up the reported call for CC12CCC3C4(C)COC(c5ccco5)OC4CCC3(C)C1CC(C1=CCOC1=O)O2 (configuration not stated) for me?
Result: FALSE

Request: Call for entry O=C1/C(=C/c2ccccc2)Oc2ccc(O)c(I)c21 :
Result: FALSE

Request: Record lookup: outcome of this test for CC(C)(C)n1cc(-c2ccnc(NCCCNS(=O)(=O)c3ccc(Br)cc3)c2)c(-c2cccc(O)c2)n1 ?
Result: TRUE

Request: Call for entry CCN(CC)CCC(CNc1ccnc2cc(Cl)ccc12)c1ccccc1 (configuration not stated) :
Result: FALSE

Request: Would you mind telling me which call this test gave COc1ccc(-c2c(N)n[nH]c2-c2cc(OC)c3c(c2)OCCO3)cc1 ?
Result: FALSE

Request: Hi, do you know how C/C(=N/NC(=S)Nc1ccccc1)c1nc2ccc(Cl)cc2[nH]1 came out in this test?
Result: TRUE

Request: Tell me the assay call for CCCOC(=O)n1cccc1 please.
Result: FALSE

Request: Which result was noted for this compound in the test: Nc1cccc(Cl)c1N
Result: FALSE

Request: Outcome? COc1ccc(C(=O)N2NC(=O)/C(=C/c3ccccc3F)N=C2c2ccccc2)cc1
Result: FALSE

Request: // param item: Cc1ccc(S(=O)(=O)Nc2c(Br)cc(Br)cc2C(N)=O)cc1 ; yields the recorded call
Result: FALSE

Request: Test call, this compound: CCCCN(CCCC)c1ccc(C(=N)c2ccc(N(CCCC)CCCC)cc2)cc1
Result: TRUE

Request: What was the test verdict on C=C(C)[C@@H]1C[C@@H]2Cc3cc(F)ccc3N1O2 ?
Result: FALSE

Request: Give the logged outcome of this assay for the following compound: COc1cc(-c2nn(-c3cccc(NC(=O)Nc4cc(C(F)(F)F)cc(C(F)(F)F)c4)c3)cc2-c2ccncc2)ccc1Cl
Result: TRUE

Request: Could you check what this test reported for Cc1ccc(S(=O)(=O)NCCNc2cc(-c3cn(C(C)(C)C)nc3-c3cccc(O)c3)ccn2)cc1 ?
Result: FALSE

Request: Assay outcome for Nc1nnc(-c2ccc3ccccc3c2O)o1 : what was it?
Result: FALSE

Request: What was the test verdict on CCO/C=N/C1=C(C#N)C(c2ccc(Cl)cc2)c2c(c3ccccc3n(C)c2=O)O1 (configuration not stated) ?
Result: FALSE

Request: Record lookup: outcome of this test for CC(C)(C)n1cc(-c2ccnc(NCCNS(=O)(=O)c3ccc(F)cc3)c2)c(-c2cccc(O)c2)n1 ?
Result: FALSE

Request: Per the assay record, what outcome was assigned to O=C(Nc1ccc2c(c1)OCO2)C(=O)c1c[nH]c2cc(F)ccc12 ?
Result: FALSE

Request: # outcome recorded in this test, key = CN(C)CCOC(=O)Nc1ccccc1Cl
Result: FALSE
